Biological target: UniProt:P34976
Sequence (P34976 whole entry): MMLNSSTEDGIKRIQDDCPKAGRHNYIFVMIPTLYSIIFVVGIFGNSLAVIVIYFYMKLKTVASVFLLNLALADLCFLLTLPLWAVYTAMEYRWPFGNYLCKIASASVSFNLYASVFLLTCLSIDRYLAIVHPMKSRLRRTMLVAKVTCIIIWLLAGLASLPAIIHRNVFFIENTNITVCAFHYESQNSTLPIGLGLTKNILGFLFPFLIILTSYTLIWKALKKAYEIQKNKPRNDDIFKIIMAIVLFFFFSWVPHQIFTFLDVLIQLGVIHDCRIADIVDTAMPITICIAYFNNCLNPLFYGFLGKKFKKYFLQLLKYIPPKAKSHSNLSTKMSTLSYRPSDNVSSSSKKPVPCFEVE
Assay: Antagonist activity at AT1 receptor in Japanese white rabbit thoracic aorta assessed as inhibition of […] contraction incubated 30 mins post KCl-induction for 1 hr
Format: functional, tissue-based
Conditions: read-out: pA2 (converted)
Catalogue of Kb values

- MOLECULE: "CCCc1nc2c(C)cc(C(=O)NCC(C)c3ccccc3)cc2n1Cc1ccc(-c2ccccc2-c2nnn[nH]2)cc1 (centres undefined)"
  Kb / nM: 1.7
- MOLECULE: "CCCc1nc2c(C)cc(C(=O)NCCc3cccc(OC)c3)cc2n1Cc1ccc(-c2ccccc2-c2nnn[nH]2)cc1"
  Kb / nM: 14.8
- MOLECULE: "CCCc1nc2c(C)cc(C(=O)NCCc3ccc(OC)c(OC)c3)cc2n1Cc1ccc(-c2ccccc2-c2nnn[nH]2)cc1"
  Kb / nM: 1.82
- MOLECULE: "CCCc1nc2c(C)cc(C(=O)NCCc3ccccc3)cc2n1Cc1ccc(-c2ccccc2-c2nnn[nH]2)cc1"
  Kb / nM: 4.79
